molecular target: UniProt:Q8ILY1; assay: Fluorescence-based high-throughput DNA polymerase assay (molecular beacon), primary screen and dose-response; format: biochemical; details: DRC-2; 5'; concentration 5
Decision: % inhibition Apo pol 5' compared against 20%; not below it gives Y, below it gives N.

Completed entries (count: 8):
CCCCOC(=O)CCCCCN1C(=O)C(=Cc2ccc(OC)cc2)SC1=S :: N
Cc1cccc(-c2nnc3ccc(NS(=O)(=O)c4ccc(C)c(C)c4)nn23)c1 :: N
COc1ccc(-c2n[nH]cc2Oc2ccc(Cl)cc2)c(O)c1 :: Y
CN(C)S(=O)(=O)Oc1ccc(-c2noc(-c3ccc(Oc4cc(Cl)cc(Cl)c4)o3)n2)cc1 :: N
Cc1ccc2c(C(=O)NCCc3cccnc3)cc(NC(=O)C(C)C)cc2n1 :: N
N#CC(=NNc1cc(C(F)(F)F)cc(C(F)(F)F)c1)C(=O)c1ccco1 :: N
Cc1cc(C)c2c(O)nc(SCC(=O)c3ccc(O)c(O)c3)nc2n1 :: Y
Cc1cc(C)cc(-n2nc3c(c2NC(=O)c2ccco2)CSC3)c1 :: Y

Quick check: does Cc1ccc(CCNC(=O)c2cnn3c(O)c(Cc4ccccc4F)c(C)nc23)cc1 have % inhibition Apo pol 5' greater than or equal to 20%?
N

Quick check: does CCCCc1ccc(NC(=O)CSc2nc(O)c(C#N)c(C3CCCCC3)n2)c(C)c1 have % inhibition Apo pol 5' greater than or equal to 20%?
N

Quick check: does CC1(C)CC(=O)C2=C(C1)OC1=C(C(=O)CC(C)(C)C1)C2c1ccc(O)cc1 have % inhibition Apo pol 5' greater than or equal to 20%?
N

Quick check: does NS(=O)(=O)c1ccc(NC(=O)c2ccc(N3C(=O)CCC3=O)cc2)cc1 have % inhibition Apo pol 5' greater than or equal to 20%?
N

Quick check: does O=C1C(=Cc2ccncc2)Oc2c1ccc1c2CN(Cc2ccc3c(c2)OCO3)CO1 have % inhibition Apo pol 5' greater than or equal to 20%?
N

---

target: UniProt Q8ILY1; experiment: Fluorescence-based high-throughput DNA polymerase assay (molecular beacon), primary screen and dose-response; format: biochemical; details: DRC-2; read at 180'; concentration 5
Would you kindly list % inhibition apPOL 180' 5 for each of these molecules?
Give bare numbers, in %.

Examples from the recorded data:
Cc1ccc(N2CCC(NC(=O)Cc3cccs3)C2=O)cc1C (stereo not shown) :: 3.34
Cc1cccc(-c2noc(C(=O)NNC(=O)C(Cl)(Cl)Cl)n2)c1 :: 1.1
O=C1CSC2=NC3=C(CCc4ccccc43)C(c3cccs3)N12 (stereo not shown) :: 2.64
O=C(CCc1csc(NC(=O)Nc2ccccc2)n1)Nc1nc2ccccc2s1 :: -12
C#CC(C=CC)OC(=O)c1ccccc1C(=O)O (stereo not shown) :: -4
O=C(c1ccccc1)N1CCc2c(nc3cc(-c4ccccc4)[nH]n3c2=O)C1 :: 10

Moving on to the next molecule.
Find the recorded % inhibition apPOL 180' 5 belonging to COc1ccc(/C=C/c2cc(C(=O)O)c3ccccc3n2)cc1 and report it.
25

---

target: P. falciparum apicoplast DNA polymerase (Pf-apPOL) (Plasmodium falciparum); test: Fluorescence-based high-throughput DNA polymerase assay (molecular beacon), primary screen and dose-response; type: biochemical; conditions: DRC-2; 5'; concentration 5
Sequence (Q8ILY1 entry or part of it): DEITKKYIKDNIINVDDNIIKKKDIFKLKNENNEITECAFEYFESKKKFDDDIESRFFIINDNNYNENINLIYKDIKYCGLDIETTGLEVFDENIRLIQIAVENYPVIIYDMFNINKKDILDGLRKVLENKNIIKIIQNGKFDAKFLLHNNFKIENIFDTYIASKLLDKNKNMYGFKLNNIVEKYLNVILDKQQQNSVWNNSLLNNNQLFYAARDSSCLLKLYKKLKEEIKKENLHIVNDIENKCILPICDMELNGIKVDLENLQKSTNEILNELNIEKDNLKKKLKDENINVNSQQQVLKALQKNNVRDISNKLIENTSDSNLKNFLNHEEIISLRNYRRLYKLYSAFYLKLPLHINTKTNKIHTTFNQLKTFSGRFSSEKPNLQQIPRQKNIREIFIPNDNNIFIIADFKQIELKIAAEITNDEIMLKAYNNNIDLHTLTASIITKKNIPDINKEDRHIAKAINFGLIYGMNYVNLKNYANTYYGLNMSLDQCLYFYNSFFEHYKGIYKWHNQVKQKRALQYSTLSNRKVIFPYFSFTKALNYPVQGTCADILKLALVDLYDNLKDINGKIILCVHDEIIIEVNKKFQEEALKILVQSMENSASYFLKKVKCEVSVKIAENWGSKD
endpoint-name: % inhibition Apo pol 5' (%)
One number for each entry, in %.

O=C1c2ccccc2C(=O)N1Oc1ccc([N+](=O)[O-])c([N+](=O)[O-])c1 :: 6
Cc1cc(C)c(O)c(/N=C/c2cc([N+](=O)[O-])cc(Br)c2O)c1 :: 6
COc1ccc(-c2cc3nc4c(c(=O)n3[nH]2)CCN(C(=O)CCc2ccccc2)C4)cc1 :: 12

Can you give me % inhibition Apo pol 5' for all of these, one by one?
1. O=C(c1ccccc1)N1CCc2c(nc3cc(-c4ccccc4)[nH]n3c2=O)C1
2. O=c1cc(CN2CCCCC2)c2cc3c(cc2o1)OCO3
3. CC(NC(=O)Cc1cc(=O)[nH]c(SCc2cccc(Cl)c2)n1)c1ccccc1 (centres unmarked)
4. CCCCCCCCCCCCCCCCCC(=O)CCN(C)C

18
6
-0.394
1.37

Query for P. falciparum apicoplast DNA polymerase (Pf-apPOL) (Plasmodium falciparum): what % inhibition Apo pol 5' does the record show for COc1cccc(Oc2c(C(F)(F)F)oc3cc(OC(=O)N(C)C)ccc3c2=O)c1 ?
18
